Provide the reported Kd of each item.
experimental target: T1, Mint1^WT C-terminal construct, amino acids 453-839 (rat, UniProt O35430 453-839)
T1 sequence (looked up): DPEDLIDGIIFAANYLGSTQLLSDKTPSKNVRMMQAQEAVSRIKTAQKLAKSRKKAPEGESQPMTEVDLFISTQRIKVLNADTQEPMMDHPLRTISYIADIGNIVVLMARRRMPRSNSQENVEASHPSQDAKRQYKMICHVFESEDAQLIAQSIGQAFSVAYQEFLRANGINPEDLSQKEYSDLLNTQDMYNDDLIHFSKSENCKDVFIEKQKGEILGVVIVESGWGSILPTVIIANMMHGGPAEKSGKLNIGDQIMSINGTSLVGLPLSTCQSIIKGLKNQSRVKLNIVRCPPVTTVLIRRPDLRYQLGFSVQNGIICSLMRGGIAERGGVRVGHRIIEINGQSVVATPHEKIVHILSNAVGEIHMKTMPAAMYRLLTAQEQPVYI
assay comment: fluorescence polarisation
No end group written: not given here.
Give the number; µM is assumed, so skip it.

Task item: Using the record for {TAMRA}-NNGLSSGGRARHSYHHPDQDHWC [TAMRA-VGCC2.2-20mer] , report its Kd.
Reply: 619

Task item: // lookup Kd for {TAMRA}-NNGQNGYENPTYKFFEQMQN [TAMRA-APP17-mer]
Reply: 282

Reference source for all entries: paper PMC10529462
